// data source = patent US20250313535A1

- assayed.target: α4β7 integrin (Homo sapiens (Human), UniProt P13612+P26010)
- Sequence (P13612 34-1032): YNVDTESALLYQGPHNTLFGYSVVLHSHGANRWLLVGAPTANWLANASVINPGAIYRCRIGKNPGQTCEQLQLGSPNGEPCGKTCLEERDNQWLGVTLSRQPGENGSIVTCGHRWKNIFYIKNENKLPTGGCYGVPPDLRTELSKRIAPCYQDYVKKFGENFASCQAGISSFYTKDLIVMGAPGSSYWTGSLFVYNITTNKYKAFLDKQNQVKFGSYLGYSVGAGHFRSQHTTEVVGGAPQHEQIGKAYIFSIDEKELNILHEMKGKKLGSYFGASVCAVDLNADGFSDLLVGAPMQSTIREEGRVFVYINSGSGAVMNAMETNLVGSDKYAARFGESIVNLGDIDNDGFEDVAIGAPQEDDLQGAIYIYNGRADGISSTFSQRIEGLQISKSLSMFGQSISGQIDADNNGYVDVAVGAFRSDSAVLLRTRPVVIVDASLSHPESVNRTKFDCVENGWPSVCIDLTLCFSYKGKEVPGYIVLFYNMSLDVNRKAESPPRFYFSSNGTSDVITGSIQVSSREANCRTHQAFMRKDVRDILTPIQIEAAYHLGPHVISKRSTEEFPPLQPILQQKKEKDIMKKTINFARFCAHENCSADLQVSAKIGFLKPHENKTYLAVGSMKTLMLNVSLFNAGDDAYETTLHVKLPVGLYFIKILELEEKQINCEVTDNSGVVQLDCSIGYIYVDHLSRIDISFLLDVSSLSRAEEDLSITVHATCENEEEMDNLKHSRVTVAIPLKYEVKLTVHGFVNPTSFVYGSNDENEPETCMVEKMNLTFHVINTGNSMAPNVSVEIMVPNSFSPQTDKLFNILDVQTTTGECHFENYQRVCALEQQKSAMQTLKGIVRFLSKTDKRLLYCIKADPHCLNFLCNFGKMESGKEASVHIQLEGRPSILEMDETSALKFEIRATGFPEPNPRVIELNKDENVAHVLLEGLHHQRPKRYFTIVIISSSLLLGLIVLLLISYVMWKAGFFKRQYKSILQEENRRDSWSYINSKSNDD
- Sequence (P26010 20-798): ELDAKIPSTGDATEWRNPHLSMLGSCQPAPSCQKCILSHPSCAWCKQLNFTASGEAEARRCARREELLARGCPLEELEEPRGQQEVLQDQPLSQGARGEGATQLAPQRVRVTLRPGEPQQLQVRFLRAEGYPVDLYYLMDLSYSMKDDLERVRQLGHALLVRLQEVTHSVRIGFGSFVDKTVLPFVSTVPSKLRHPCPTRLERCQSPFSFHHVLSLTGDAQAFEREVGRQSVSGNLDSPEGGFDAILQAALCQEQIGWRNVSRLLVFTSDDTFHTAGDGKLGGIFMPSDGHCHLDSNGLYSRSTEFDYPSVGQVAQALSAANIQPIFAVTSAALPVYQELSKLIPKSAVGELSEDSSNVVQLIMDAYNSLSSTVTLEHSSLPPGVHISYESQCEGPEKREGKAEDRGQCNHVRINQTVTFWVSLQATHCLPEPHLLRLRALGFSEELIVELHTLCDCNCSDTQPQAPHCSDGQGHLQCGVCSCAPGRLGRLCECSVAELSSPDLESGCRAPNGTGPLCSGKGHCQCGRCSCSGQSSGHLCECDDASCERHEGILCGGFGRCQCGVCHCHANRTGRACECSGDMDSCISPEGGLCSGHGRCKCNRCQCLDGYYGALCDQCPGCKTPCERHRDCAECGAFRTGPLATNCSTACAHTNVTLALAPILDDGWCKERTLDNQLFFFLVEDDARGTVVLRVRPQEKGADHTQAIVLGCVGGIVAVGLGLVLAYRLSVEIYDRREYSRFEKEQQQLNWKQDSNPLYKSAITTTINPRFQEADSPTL
- test.details: Integrin Adhesion Assay: Protocol 4 (MAdCAM-coated plate, RPMI-8866 cells with stable LOF mutation of the ITGB1 gene)
- Assay type: cell-based
- conditions.used: RPMI-8866 cells with stable LOF mutation of the ITGB1 gene; read-out: Mean IC50 α4β7 KO^a
I'd be grateful if you could share measured IC50 for these entries.

| compound | IC50 |
| --- | --- |
| Cn1c(=O)c(-c2cccc3c(C[C@H](NC(=O)C4(C(F)(F)F)CCN(CC(C)(F)F)CC4)C(=O)O)cccc23)c(C(F)(F)F)c2ccccc21 [Compound 534] | 10 to 100 nM |

For each of the items listed, what is its IC50?
1. COc1ccc(CN2CCC(F)(F)CC2)c(OC)c1-c1cccc2c(C[C@H](NC(=O)c3c(C)cc(NCC(F)(F)F)cc3F)C(=O)O)cccc12 [Compound 608]
2. COc1ccc(CN2CCCCC2)c(OC)c1-c1cccc2c(C[C@H](NC(=O)c3c(F)cccc3C#N)C(=O)O)cccc12 [Compound 646]

// result
["10 to 100 nM", "100 to 1000 nM"]

For each of the items listed, what is its IC50?
1. COc1cc(CN(C)C)cc(OC)c1-c1cccc2c(C[C@H](NC(=O)C3(C(F)(F)F)CCN(CC(F)(F)F)CC3)C(=O)O)cccc12 [Compound 478]
2. N#CC1(C(=O)N[C@@H](Cc2cccc3c(-c4ncc(CN5CCCCC5)c5ccccc45)cccc23)C(=O)O)CCN(CC(F)(F)F)CC1 [Compound 677]
3. COc1cccc(CN2CCCCC2)c1-c1cccc2c(C[C@H](NC(=O)c3c(C)cc(NCC(F)(F)F)cc3F)C(=O)O)cccc12 [Compound 545]
4. Cn1c(=O)c(-c2cccc3c(C[C@H](NC(=O)[C@]4(C)CC[C@H](N5CC(F)(F)C5)CC4)C(=O)O)cccc23)c(C(F)(F)F)c2ccccc21 [Compound 400]
5. CC1(C(=O)N[C@@H](Cc2cccc3c(-c4ncc(CN5CCCCC5)c5ccccc45)cccc23)C(=O)O)CCN(CC(F)(F)F)CC1 [Compound 576]
6. CCCS(=O)(=O)N1CCC(C(=O)N[C@@H](Cc2cccc3c(-c4c(OC)ccc(CN5CCC(F)(F)CC5)c4OC)cccc23)C(=O)O)(C(F)(F)F)CC1 [Compound 617]
7. COc1ccc(CN2CC(F)(F)C2)c(OC)c1-c1cccc2c(C[C@H](NC(=O)c3c(C)cccc3F)C(=O)O)cccc12 [Compound 627]

// result
1: < 10 nM; 2: 10 to 100 nM; 3: < 10 nM; 4: 100 to 1000 nM; 5: < 10 nM; 6: 100 to 1000 nM; 7: 10 to 100 nM

For each of the items listed, what is its IC50?
1. COc1ccc(CN(C)C)c(OC)c1-c1cccc2c(C[C@H](NC(=O)c3c(C)cccc3Cl)C(=O)O)cccc12 [Compound 613]
2. O=C(O)[C@H](Cc1cccc2c(-c3ncc(CN4CCCCC4)c4ccccc34)cccc12)NC(=O)C1(C(F)(F)F)CCN(CCC(F)(F)F)CC1 [Compound 682]

// result
< 10 nM
< 10 nM
